TARGET_DESC: UniProtKB P25090
Sequence (P25090 whole entry, species assumed): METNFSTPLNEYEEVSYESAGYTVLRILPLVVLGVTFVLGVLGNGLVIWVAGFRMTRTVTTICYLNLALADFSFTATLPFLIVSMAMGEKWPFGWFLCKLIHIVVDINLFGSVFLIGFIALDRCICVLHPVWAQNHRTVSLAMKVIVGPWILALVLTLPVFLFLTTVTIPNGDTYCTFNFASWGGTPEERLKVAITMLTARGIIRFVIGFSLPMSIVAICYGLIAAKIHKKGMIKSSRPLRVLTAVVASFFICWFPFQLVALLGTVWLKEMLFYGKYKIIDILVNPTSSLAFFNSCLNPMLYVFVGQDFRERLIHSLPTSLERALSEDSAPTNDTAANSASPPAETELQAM
ASSAY_NAME: Change in calcium activity by peptide (Fura-2) in RBL cells overexpressing FPR2
CONDITION: calcium activity (Fura-2), graded per Table 3, read-out: EC50 for [Ca^2+] FPR2
pEC50: −log10 of the molar value. Peptide text beside a SMILES is read from it.
Quick reference: pEC50 of the listed items.

Task item: Endpoint output: pEC50 of CCCCCCCC(=O)N1CCC[C@H]1C(=O)N[C@@H](CCSC)C(=O)N[C@@H](CCCNC(=N)N)C(=O)N[C@@H](Cc1ccc(O)cc1)C(=O)N[C@@H](CCCCN)C(=O)N1CCC[C@H]1C(=O)N[C@H](CCSC)C(N)=O [Peptide 65] (HELM PEPTIDE1{[CCCCCCCC(=O)[*:2]].P.M.R.Y.K.P.[dM].[am]}$$$$V2.0) . Value?
Reply: > 8.00

Task item: Same thing, different compound: CC[C@H](C)[C@H](N)C(=O)N[C@@H](CCCCN)C(=O)N[C@@H](Cc1ccccc1)C(=O)N[C@@H](Cc1c[nH]c2ccccc12)C(=O)N[C@@H](CCSC)C(=O)N[C@H](CCSC)C(N)=O [Peptide 129] (HELM PEPTIDE1{I.K.F.W.M.[dM].[am]}$$$$V2.0)
Reply: 7.00 to 7.96

Task item: Same thing, different compound: CSCC[C@H](N)C(=O)N[C@@H](CCCNC(=N)N)C(=O)N[C@@H](Cc1ccc(O)cc1)C(=O)N[C@@H](CCCCN)C(=O)N[C@H](C(=O)N[C@H](CCSC)C(N)=O)C(C)C [Peptide 13] (HELM PEPTIDE1{M.R.Y.K.V.[dM].[am]}$$$$V2.0)
Reply: > 8.00

Task item: Same thing, different compound: CCCCCCCC(=O)N1CCC[C@H]1C(=O)N[C@@H](CCCCN)C(=O)N[C@@H](Cc1ccc(O)cc1)C(=O)N[C@@H](CCCCN)C(=O)N[C@H](C(=O)N[C@H](CCSC)C(N)=O)C(C)C [Peptide 141] (HELM PEPTIDE1{[CCCCCCCC(=O)[*:2]].P.K.Y.K.V.[dM].[am]}$$$$V2.0)
Reply: > 8.00

Task item: Same thing, different compound: CSCC[C@H](N)C(=O)N[C@@H](CCCCN)C(=O)N[C@@H](Cc1ccc(O)cc1)C(=O)N[C@@H](CCCCN)C(=O)N[C@H](C(=O)N[C@H](CCSC)C(N)=O)C(C)C [Peptide 17] (HELM PEPTIDE1{M.K.Y.K.V.[dM].[am]}$$$$V2.0)
Reply: > 8.00

Task item: Same thing, different compound: CSCC[C@@H](NC(=O)[C@@H]1CCCN1C(=O)[C@H](CCCCN)NC(=O)[C@H](Cc1ccc(O)cc1)NC(=O)[C@H](CCCCN)NC(=O)[C@H](Cc1c[nH]cn1)NC(C)=O)C(N)=O [Peptide 147] (HELM PEPTIDE1{[ac].H.K.Y.K.P.[dM].[am]}$$$$V2.0)
Reply: > 8.00

Task item: Same thing, different compound: CCCCCCCC(=O)N[C@@H](CCSC)C(=O)N[C@@H](CCCCN)C(=O)N[C@@H](Cc1ccc(O)cc1)C(=O)N[C@@H](CCCCN)C(=O)N1CCC[C@H]1C(=O)N[C@H](CCSC)C(N)=O [Peptide 73] (HELM PEPTIDE1{[CCCCCCCC(=O)[*:2]].M.K.Y.K.P.[dM].[am]}$$$$V2.0)
Reply: 7.00 to 7.96

Task item: Same thing, different compound: CCCC(=O)N[C@@H](CCSC)C(=O)N[C@@H](CCCCN)C(=O)N[C@@H](Cc1ccc(O)cc1)C(=O)N[C@@H](Cc1c[nH]c2ccccc12)C(=O)N1CCC[C@H]1C(=O)N[C@H](CCSC)C(N)=O [Peptide 115] (HELM PEPTIDE1{[CCCC(=O)[*:2]].M.K.Y.W.P.[dM].[am]}$$$$V2.0)
Reply: > 8.00

Task item: Same thing, different compound: CSCC[C@@H](NC(=O)[C@H](Cc1ccc(O)cc1)NC(=O)[C@H](CCCNC(=N)N)NC(=O)[C@H](Cc1ccc(O)cc1)NC(=O)[C@H](CCCNC(=N)N)NC(=O)[C@H](Cc1c[nH]c2ccccc12)NC(=O)[C@@H](N)CCCNC(=N)N)C(N)=O [Peptide 48] (HELM PEPTIDE1{R.W.R.Y.R.Y.[dM].[am]}$$$$V2.0)
Reply: 7.00 to 7.96

Task item: Same thing, different compound: CSCC[C@H](NC(=O)[C@@H](N)CCCNC(=N)N)C(=O)N[C@@H](CCCNC(=N)N)C(=O)N[C@@H](Cc1ccc(O)cc1)C(=O)N[C@@H](Cc1ccc(O)cc1)C(=O)N[C@H](C(=O)N[C@H](CCSC)C(N)=O)C(C)C [Peptide 97] (HELM PEPTIDE1{R.M.R.Y.Y.V.[dM].[am]}$$$$V2.0)
Reply: > 8.00

Task item: Same thing, different compound: CSCC[C@H](N)C(=O)N[C@@H](CCCNC(=N)N)C(=O)N[C@@H](Cc1ccc(O)cc1)C(=O)N[C@@H](Cc1ccc(O)cc1)C(=O)N1CCC[C@H]1C(=O)N[C@H](CCSC)C(N)=O [Peptide 120] (HELM PEPTIDE1{M.R.Y.Y.P.[dM].[am]}$$$$V2.0)
Reply: > 8.00

Task item: Same thing, different compound: CC[C@H](C)[C@H](NC(C)=O)C(=O)N[C@@H](CCCCN)C(=O)N[C@@H](Cc1ccc(O)cc1)C(=O)N[C@@H](CCCCN)C(=O)N[C@H](C(=O)N[C@H](CCSC)C(N)=O)C(C)C [Peptide 135] (HELM PEPTIDE1{[ac].I.K.Y.K.V.[dM].[am]}$$$$V2.0)
Reply: > 8.00

Task item: Same thing, different compound: CSCC[C@H](NC(C)=O)C(=O)N[C@@H](CCCNC(=N)N)C(=O)N[C@@H](Cc1ccc(O)cc1)C(=O)N[C@@H](CCCCN)C(=O)N1CCC[C@H]1C(=O)N[C@H](CCSC)C(N)=O [Peptide 55] (HELM PEPTIDE1{[ac].M.R.Y.K.P.[dM].[am]}$$$$V2.0)
Reply: > 8.00

Task item: Same thing, different compound: CSCC[C@H](N)C(=O)N[C@@H](CCCNC(=N)N)C(=O)N[C@@H](Cc1ccc(O)cc1)C(=O)N[C@@H](Cc1c[nH]c2ccccc12)C(=O)N[C@@H](Cc1ccc(O)cc1)C(=O)N[C@H](CCSC)C(N)=O [Peptide 85] (HELM PEPTIDE1{M.R.Y.W.Y.[dM].[am]}$$$$V2.0)
Reply: > 8.00
